B1: CIB1 (parent)
chain: DLSRLVNCLTGEGEDTRLSASEMK

- Variants of: B1
- Experimental protocol: protein stability index of a GFP-peptide fusion (GPS, HEK-293T) (PSI 1-6); higher = more stable;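 also: lentivirally expressed fusions sorted by FACS into six bins by GFP to DsRed ratio, PSI derived from sequencing read proportions per bin multiplied by bin number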
- Condition description: c terminus: a fixed tail appended
Collected protein stability index values appear next to each entry.
Please reply with the value in numeric form only.

>>> measurement("T16D")
3.58

Item: `L18Q` | protein stability index: 2.96

Given item `L18F` , the value recorded as its protein stability index is 1.85

Per the records, this variant ( `S3T` ) has protein stability index equal to 2.32

The reported value for `S21G` in terms of protein stability index is 1.68

Record `C8N` , field protein stability index: 3.02

Data point: `A20D` ; protein stability index = 2.92

Given item `T16L` , the value recorded as its protein stability index is 3.71

Measured protein stability index of `A20H` : 2.98

Kindly note the recorded protein stability index for `E22T` , which is 3.61

Recorded protein stability index (variant `T16E` ): 3.18

The reported measurements were obtained from the supplement of paper PMC10567573.
